# study target: human recombinant HDAC6 (Homo sapiens)
# Construct: purchased Calbiochem 382180
# assay info: HDAC6 enzyme activity inhibition test (HDAC Fluorometric Drug Discovery Kit)
# Type: biochemical
# measurement setup: HDAC6 over HDAC1
# Description: The following experiment was conducted to confirm the HDAC6 selectivity of the compound represented by Chemical Formula I of the present invention through the HDAC1 and HDAC6 enzyme activity inhibition test. HDAC enzyme activity was measured using HDAC Fluorometric Drug Discovery Kit (BML-AK511, 516) manufactured by Enzo Life Science. […] Then, the fluorescence value (Ex 360, Em 460) was measured using a multiplate reader (Flexstation 3, Molecular Device). […]
Tag: t if measured HDAC6 selectivity (fold) is not below 600 fold, f if it is.

Worked examples, 5 compounds total:
O=C1OCC(c2ccccc2)=NN1Cc1ncc(-c2nnc(C(F)F)o2)cc1F; f
CC(C)N1CCN(Cc2ccc(-c3nn(Cc4ccc(-c5nnc(C(F)F)o5)cn4)c(=S)o3)cc2)CC1; t
CNCc1cccc(-c2nn(Cc3ccc(-c4nnc(C(F)F)o4)cn3)c(=S)o2)c1; f
FC(F)c1nnc(-c2ccc(Cn3nc(-c4ccccc4)oc3=S)nc2)o1; f
FC(F)c1nnc(-c2ccc(Cn3nc(-c4ccc(CN5CC[C@H](F)C5)s4)oc3=S)nc2)o1; f

In: Please indicate if the recorded HDAC6 selectivity (fold) for CC(C)N1CCC(c2cccc(-c3nn(Cc4ccc(-c5nnc(C(F)F)o5)cn4)c(=S)o3)c2F)CC1 meets or exceeds 600 fold.
Out: t

In: Determine whether measured HDAC6 selectivity (fold) meets or exceeds 600 fold for FC(F)c1nnc(-c2ccc(Cn3nc(-c4ccc(CN5CCN(C6CCC6)CC5)cc4)oc3=S)nc2)o1
Out: f

====

# study target: human recombinant HDAC6 (Homo sapiens, UniProt Q9UBN7)
# Sequence (Q9UBN7 1-1215): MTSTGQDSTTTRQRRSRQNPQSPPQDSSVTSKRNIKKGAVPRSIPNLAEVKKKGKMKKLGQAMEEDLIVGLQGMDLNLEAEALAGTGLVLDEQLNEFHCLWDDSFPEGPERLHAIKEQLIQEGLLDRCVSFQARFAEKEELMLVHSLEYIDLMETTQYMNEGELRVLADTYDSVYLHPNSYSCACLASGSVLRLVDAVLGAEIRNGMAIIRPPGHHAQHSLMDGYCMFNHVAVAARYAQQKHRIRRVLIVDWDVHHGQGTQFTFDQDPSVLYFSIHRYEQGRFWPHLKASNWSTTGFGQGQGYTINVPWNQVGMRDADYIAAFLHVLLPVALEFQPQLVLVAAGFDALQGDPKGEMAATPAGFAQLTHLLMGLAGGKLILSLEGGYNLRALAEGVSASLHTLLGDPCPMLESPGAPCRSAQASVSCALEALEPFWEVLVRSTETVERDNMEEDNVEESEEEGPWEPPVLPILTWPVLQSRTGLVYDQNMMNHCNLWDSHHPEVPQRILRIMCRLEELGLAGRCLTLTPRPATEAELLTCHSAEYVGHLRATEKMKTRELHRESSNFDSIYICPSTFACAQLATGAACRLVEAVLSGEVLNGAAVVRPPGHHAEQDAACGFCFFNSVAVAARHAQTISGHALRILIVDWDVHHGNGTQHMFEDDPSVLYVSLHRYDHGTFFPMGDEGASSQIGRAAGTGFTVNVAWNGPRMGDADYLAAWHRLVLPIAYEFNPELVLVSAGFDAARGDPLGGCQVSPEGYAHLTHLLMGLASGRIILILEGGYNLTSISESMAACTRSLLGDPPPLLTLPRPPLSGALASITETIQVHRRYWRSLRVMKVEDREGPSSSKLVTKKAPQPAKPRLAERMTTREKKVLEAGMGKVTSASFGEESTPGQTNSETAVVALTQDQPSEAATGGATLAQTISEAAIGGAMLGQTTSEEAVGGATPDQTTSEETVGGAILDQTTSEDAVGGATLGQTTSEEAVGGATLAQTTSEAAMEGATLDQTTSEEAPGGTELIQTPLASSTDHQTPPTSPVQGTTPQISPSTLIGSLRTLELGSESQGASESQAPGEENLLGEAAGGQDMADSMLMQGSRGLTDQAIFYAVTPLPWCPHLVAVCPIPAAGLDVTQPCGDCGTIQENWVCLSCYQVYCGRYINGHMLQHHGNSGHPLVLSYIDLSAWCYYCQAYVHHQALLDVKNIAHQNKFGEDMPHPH
# assay info: HDAC6 enzyme activity inhibition test (HDAC Fluorometric Drug Discovery Kit)
# measurement setup: human recombinant HDAC6; same protocol as HDAC1
Kindly state pIC50 for each of the entries shown.
Numbers only, as −log10 of the molar value.

Hey, can you go through the list below and give me pIC50 for every item?
1. CN1CCc2ccc(-c3nn(Cc4ccc(-c5nnc(C(F)F)o5)cn4)c(=O)o3)cc2C1
2. CC1CCN(Cc2ccc(-c3nn(Cc4ccc(-c5nnc(C(F)F)o5)cn4)c(=S)o3)cc2)CC1

Out:
[7.08, 7.38]

Fill in pIC50 for each of the 2 compounds listed.
1. CN(C)Cc1cccc(-c2nn(Cc3ncc(-c4nnc(C(F)F)o4)cc3F)c(=S)o2)c1
2. O=c1oc(-c2ccsc2)nn1Cc1ccc(-c2nnc(C(F)F)o2)cn1

Out:
1. 7.13
2. 7.04

====

# study target: human recombinant HDAC6 (Homo sapiens, UniProt Q9UBN7)
# Construct: purchased Calbiochem 382180
# assay info: HDAC6 enzyme activity inhibition test (HDAC Fluorometric Drug Discovery Kit)
# Format: biochemical
# measurement setup: HDAC6 over HDAC1
assay readout: HDAC6 selectivity (fold)
Numbers only, in fold.

Here are 5 compounds together with their reported answers.
CN1CCc2cc(-c3nn(Cc4ccc(-c5nnc(C(F)F)o5)cn4)c(=S)o3)sc2C1; 552
CCN(CC)Cc1ccc(-c2nn(Cc3ncc(-c4nnc(C(F)F)o4)cc3F)c(=S)o2)cc1; 1020
Fc1cc(-c2nnc(C(F)F)o2)cnc1Cn1nc(-c2ccc(CN3CCCCC3)cc2)oc1=S; 980
O=c1sc(-c2ccccc2F)nn1Cc1ccc(-c2nnc(C(F)F)o2)cn1; 444
CC(C)N1CCN(c2nccc(-c3nn(Cc4ccc(-c5nnc(C(F)F)o5)cn4)c(=S)o3)n2)CC1; 879

Fill in HDAC6 selectivity (fold) for each of the 8 compounds listed.
1. Cn1ccc2ccc(-c3nn(Cc4ccc(-c5nnc(C(F)F)o5)cn4)c(=O)o3)cc21
2. O=c1sc(-c2cccc(CN3CCN(C4CS(=O)(=O)C4)CC3)c2)nn1Cc1ccc(-c2nnc(C(F)F)o2)cn1
3. O=c1oc(-c2ccc(CN3CCCC3)cc2)nn1Cc1ccc(-c2nnc(C(F)F)o2)cn1
4. O=c1oc(-c2cccc(N3CCN(C4COC4)CC3)n2)nn1Cc1ccc(-c2nnc(C(F)F)o2)cn1
5. O=c1sc(-c2ccc(C3CCN(C4COC4)CC3)cc2)nn1Cc1ccc(-c2nnc(C(F)F)o2)cn1
6. FC(F)c1nnc(-c2ccc(Cn3nc(-c4cccnc4)oc3=S)nc2)o1
7. CC(C)N1CCN(c2cccc(-c3nn(Cc4ccc(-c5nnc(C(F)F)o5)cn4)c(=S)o3)n2)CC1
8. CN1CCN(c2ccc(-c3nn(Cc4ccc(-c5nnc(C(F)F)o5)cn4)c(=O)o3)c(F)c2)CC1

Out:
[643, 537, 506, 600, 422, 473, 2538, 487]

Give HDAC6 selectivity (fold) for each of the items listed below.
1. O=c1oc(-c2ccc3c(c2)CN(C2CCC2)CC3)nn1Cc1ccc(-c2nnc(C(F)F)o2)cn1
2. O=c1oc(-c2ccc(N3CCNCC3)cc2F)nn1Cc1ccc(-c2nnc(C(F)F)o2)cn1
3. CN1CCN(c2cccc(-c3nn(Cc4ccc(-c5nnc(C(F)F)o5)cn4)c(=O)o3)c2)CC1

Out:
478
942
512

====

# study target: human recombinant HDAC6 (Homo sapiens)
# Construct: purchased Calbiochem 382180
# assay info: HDAC6 enzyme activity inhibition test (HDAC Fluorometric Drug Discovery Kit)
# Type: biochemical
# measurement setup: HDAC6 over HDAC1
Is HDAC6 selectivity (fold) at least 900 fold? Then 1 (yes). If not, 0 (no).

FC(F)c1nnc(-c2ccc(Cn3nc(-c4ccc(CN5CCOCC5)cc4)oc3=S)nc2)o1; 0 (no)
O=c1oc(-c2ccc(CN3CCCCC3)cc2)nn1Cc1ccc(-c2nnc(C(F)F)o2)cn1; 0 (no)
CCN1CCc2cc(-c3nn(Cc4ccc(-c5nnc(C(F)F)o5)cn4)c(=S)o3)sc2C1; 1 (yes)
CCN1CCN(c2cccc(-c3nn(Cc4ncc(-c5nnc(C(F)F)o5)cc4F)c(=S)o3)n2)CC1; 1 (yes)
Fc1cc(-c2nnc(C(F)F)o2)cnc1Cn1nc(-c2ccc(CN3CC[C@H](F)C3)cc2)oc1=S; 0 (no)

In: State whether the measured HDAC6 selectivity (fold) reaches 900 fold, counting equality as reaching it, for O=c1oc(-c2cccs2)nn1Cc1ccc(-c2nnc(C(F)F)o2)cn1
Out: 0 (no)

In: Check the entry O=c1oc(-c2ccc3cc[nH]c3c2)nn1Cc1ccc(-c2nnc(C(F)F)o2)cn1 : does HDAC6 selectivity (fold) equal or exceed 900 fold?
Out: 1 (yes)

Ref: patent US20260327214A1
